Property: IC50; scope: individual molecules
Subject of test: catalytic domain (JH1, amino acids 826-1132) of human JAK2 (Homo sapiens (Human))
Sequence (O60674 826-1132): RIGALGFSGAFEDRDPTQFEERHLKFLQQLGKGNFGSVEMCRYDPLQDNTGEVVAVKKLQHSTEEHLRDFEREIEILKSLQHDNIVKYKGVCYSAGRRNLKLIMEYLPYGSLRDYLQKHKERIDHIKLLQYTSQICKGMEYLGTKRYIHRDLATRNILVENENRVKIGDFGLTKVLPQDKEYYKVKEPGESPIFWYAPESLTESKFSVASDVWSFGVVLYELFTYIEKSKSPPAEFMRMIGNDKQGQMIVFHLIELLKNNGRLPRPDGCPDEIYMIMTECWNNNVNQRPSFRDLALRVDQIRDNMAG
Assay overview: JAK2 LanthaScreen JH1 Binding Assay
Experimental parameters: JAK2 JH1 1.5 nM, 50 nM tracer, 2 hours at 25° C.; read-out: JH1 BIND IC50

Molecule: Cc1c(-c2ccc(-n3cnnn3)cc2)c(=O)[nH]c2cnc3[nH]c(-c4ccc(CN5CCC(S(C)(=O)=O)CC5)cc4)cc3c12
IC50: 1000 to 10000 nM

Molecule: Cc1c(-c2ccc3c(c2)OCCO3)c(=O)[nH]c2cnc3[nH]c(-c4ccc(CN5CCC(S(C)(=O)=O)CC5)cc4)cc3c12
IC50: 1000 to 10000 nM

Molecule: Cc1cc(-c2c(-c3ccc(C(=O)NCCO)cc3)c3c4cc(-c5cnn(C)c5)[nH]c4ncc3n(C)c2=O)on1
IC50: 500 to 1000 nM

Molecule: Cc1cc(-c2c(C3CCN(S(C)(=O)=O)C3)c3c4cc(-c5cnn(C)c5)[nH]c4ncc3n(C)c2=O)on1 (stereo not drawn)
IC50: 100 to 500 nM

Molecule: Cc1c(-c2cccc(Cl)c2)c(=O)n(C)c2cnc3[nH]c(-c4ccc(CN5CCC(S(C)(=O)=O)CC5)cc4)cc3c12
IC50: ≤ 100 nM

Molecule: CN(C)C(=O)c1ccc(-c2c(-c3cnn(C)c3)[nH]c3ncc4c(cc(N5CCC6(CCOC6)CC5)c(=O)n4C)c23)cc1
IC50: 1000 to 10000 nM

The reported numbers originate from patent US11767323B2.
